molecular target: HuCD100-His (human, UniProt Q92854); test: ELISA
Sequence (Q92854 22-734): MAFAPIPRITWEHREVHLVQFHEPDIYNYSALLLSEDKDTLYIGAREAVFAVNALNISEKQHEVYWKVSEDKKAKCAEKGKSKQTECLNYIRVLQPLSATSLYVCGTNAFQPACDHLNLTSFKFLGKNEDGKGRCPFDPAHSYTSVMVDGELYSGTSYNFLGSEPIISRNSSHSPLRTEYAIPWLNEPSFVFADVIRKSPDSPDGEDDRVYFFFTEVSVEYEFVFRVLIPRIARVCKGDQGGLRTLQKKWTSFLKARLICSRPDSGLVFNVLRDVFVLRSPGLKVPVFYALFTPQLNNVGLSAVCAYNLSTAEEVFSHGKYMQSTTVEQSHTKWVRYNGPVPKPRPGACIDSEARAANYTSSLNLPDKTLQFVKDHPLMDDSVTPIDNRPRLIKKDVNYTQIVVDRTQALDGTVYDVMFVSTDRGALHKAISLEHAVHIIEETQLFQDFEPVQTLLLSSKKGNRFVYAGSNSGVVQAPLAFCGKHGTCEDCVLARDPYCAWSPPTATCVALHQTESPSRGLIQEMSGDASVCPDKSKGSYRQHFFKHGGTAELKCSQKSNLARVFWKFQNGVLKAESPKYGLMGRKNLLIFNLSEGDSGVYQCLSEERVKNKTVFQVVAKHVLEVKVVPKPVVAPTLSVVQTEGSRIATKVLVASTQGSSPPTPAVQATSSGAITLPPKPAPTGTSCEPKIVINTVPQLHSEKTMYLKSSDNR
Entries and their EC50

INSERT INTO assay_data (binder, result) VALUES
  ('A15 (antibody, V domains shown) VH: EVQLLESGGGLIQPGGSLRLSCAASGFTVSSNYMSWVRQAPGKGLEWVSVIYSGGSTYYADSVKGRFTISRDNSKNTLYLQMNSLRAEDTAVYYCAREVEGGMDVWGQGTTVTVSS VL: SYVLTQPPSVSVSPGQTASIICSGDKLGDKYVYWYQQKSGQSPVLVIYQDRKRPSGIPERFSGSNSGNTASLAISGLQSEDEADYYCAAWDDSLNGWVFGGGTKLTVL', '7.6 ng/mL'),
  ('C-C171 (antibody, V domains shown) VH: QVQLQESGPGLVKPSGTLSLSCTVSGGSMSSNYLWSWVRQTPGKGLQWIGDIFHSGRTYYNPSLKRRVTISVDKSKNQFSLKLSSVTAADTAVYYCARQGWTTPFDYWGQGTPVTVSS VL: DIQLTQSPSSVSASVGDRVTITCRASQGISSWLAWYQQKPGKAPKLLIYAASSLQSGVPSRFSGSGSGTDFTLTISSLQPEDFATYYCLQDVYYPWTFGQGTTVEIK', '10.7 ng/mL'),
  ('H21 (antibody, V domains shown) VH: EVQLVQSGGGLVQPGRSLRLSCAASGFTFDDYAMHWVRQAPGKGLEWVSGISWNSGSIGYADSVKGRFTISRDNAKNSLYLQMNSLRAEDTALYYCAKDIGGSYFDYYYYGMDVWGQGTLVTVSS VL: EIVLTQSPATLSLSPGERATLSCRTSHNVNTYIAWYQQKPGQAPRLLFYDSSTRLPDTPARFSGSGSGTDFTLTISSLEPEDFAVYYCQQRTSWPLTFGGGTKVEIK', '5.95 ng/mL');

Query: Find the recorded EC50 belonging to B13 (antibody, V domains shown) VH: QVQLQQWGAGLLKPSETLSLTCAISSGSFSGYYWTWIRQPPGKGLEWIGETNHNGFTTYNTSLKSRITISIDASKNQFYLNLSSVTAADTATYFCARGPAYYADALDGFDIWGQGTMVTVSS VL: QSVLTQPPSVSVSPGQTASITCSGDKLGDKYVSWYQQKPGQSPVLVIYQDNKRPSGIPERFSGSNSGNTATLTISGTQAMDEADYYCQAWDSSTKAYVFGAGTKVTVL and report it.
Reply: 7.33 ng/mL

Query: Thanks! And H74 (antibody, V domains shown) VH: QVQLQQWGAGLLKPSETLSLTCAVYGGSFSGYYWSWIRQPPGKGLEWIGEINHSGSTNYNPSLKSRVTISVDTSKNQFSLKLSSVTAADTAVYYCAGTRWLQFPLNYWGQGTLVTVSS VL: SYVLTQPPSVSVSPGQTASITCSGDKLGDKYAYWYQQKPGQSPVLVLYQDAKRPSGIPERFSGSNSGNTATLTISGTQAMDEADYYCQAWDSSTAGYVFGTGTKVTVL ?
Reply: 4.67 ng/mL

Query: Thanks! And H5 (antibody, V domains shown) VH: QLQLQESGPGLVKPPGTLSLTCAVSGGSISSSNWWSWVRQPPGKGLEWIGEIYHSGSTNYNPSLKSRVTISVDTSKNQFSLKLSSVTAADTAVYYCAVYDFWSGSGLDYWGQGTLVTVSS VL: SYVLTQPPSVSVSPGQTASITCSGDKLGDKFASWYQQKPGQSPVLVIYQDRKRPSRIPERFSGSNSGNTATLTITGTQTIDEADYYCQAWDSGTVIFGGGTKLTVL ?
Reply: 6.39 ng/mL
